Origin of values: patent US20240262866A1

Experiment: Pharmacokinetic study after single intravenous injection
Assay type: in vivo, SD rats
Conditions: Sprague-Dawley, rat, plasma, female SD rats, 10 mg/kg i.v.
measured_property: clearance

Data request, read-out clearance, for CCCCCOc1ccc(-c2ccc(-c3ccc(C(=O)N[C@H]4C[C@@H](O)[C@@H](OC[C@H]5CCC[N+]5(C)C)NC(=O)[C@@H]5[C@@H](O)[C@@H](C)CN5C(=O)[C@H]([C@@H](C)O)NC(=O)[C@H]([C@H](O)[C@@H](O)c5ccc(O)cc5)NC(=O)[C@@H]5C[C@@H](O)CN5C(=O)[C@H]([C@@H](C)O)NC4=O)cc3)cc2)cc1 [Compound of formula (I)]
0.9 mL/min/kg
